Origin of values: paper PMC5527967

- Test system: C4-2B/MDV-R cells
- assay_name: WST-8 cell growth inhibition
- Format: cell-based
- run_conditions: read-out: Cell Growth Inhibition EC50 (95% CI); C4-2B/MDV-R, 3 days
test_readout: pEC50
// pEC50 here means minus log10 of the molar concentration (mol/L)

IN: Please supply the value of reported pEC50 for the item Cc1cc(C(C)Nc2ccccc2)c2nc(N3CCOCC3)cc(=O)n2c1 (stereo not shown)
OUT: 4.50

====

- assay_system: human p110δ/p85α (Homo sapiens, UniProt O00329)
- Sequence (O00329 whole entry, one chain of several): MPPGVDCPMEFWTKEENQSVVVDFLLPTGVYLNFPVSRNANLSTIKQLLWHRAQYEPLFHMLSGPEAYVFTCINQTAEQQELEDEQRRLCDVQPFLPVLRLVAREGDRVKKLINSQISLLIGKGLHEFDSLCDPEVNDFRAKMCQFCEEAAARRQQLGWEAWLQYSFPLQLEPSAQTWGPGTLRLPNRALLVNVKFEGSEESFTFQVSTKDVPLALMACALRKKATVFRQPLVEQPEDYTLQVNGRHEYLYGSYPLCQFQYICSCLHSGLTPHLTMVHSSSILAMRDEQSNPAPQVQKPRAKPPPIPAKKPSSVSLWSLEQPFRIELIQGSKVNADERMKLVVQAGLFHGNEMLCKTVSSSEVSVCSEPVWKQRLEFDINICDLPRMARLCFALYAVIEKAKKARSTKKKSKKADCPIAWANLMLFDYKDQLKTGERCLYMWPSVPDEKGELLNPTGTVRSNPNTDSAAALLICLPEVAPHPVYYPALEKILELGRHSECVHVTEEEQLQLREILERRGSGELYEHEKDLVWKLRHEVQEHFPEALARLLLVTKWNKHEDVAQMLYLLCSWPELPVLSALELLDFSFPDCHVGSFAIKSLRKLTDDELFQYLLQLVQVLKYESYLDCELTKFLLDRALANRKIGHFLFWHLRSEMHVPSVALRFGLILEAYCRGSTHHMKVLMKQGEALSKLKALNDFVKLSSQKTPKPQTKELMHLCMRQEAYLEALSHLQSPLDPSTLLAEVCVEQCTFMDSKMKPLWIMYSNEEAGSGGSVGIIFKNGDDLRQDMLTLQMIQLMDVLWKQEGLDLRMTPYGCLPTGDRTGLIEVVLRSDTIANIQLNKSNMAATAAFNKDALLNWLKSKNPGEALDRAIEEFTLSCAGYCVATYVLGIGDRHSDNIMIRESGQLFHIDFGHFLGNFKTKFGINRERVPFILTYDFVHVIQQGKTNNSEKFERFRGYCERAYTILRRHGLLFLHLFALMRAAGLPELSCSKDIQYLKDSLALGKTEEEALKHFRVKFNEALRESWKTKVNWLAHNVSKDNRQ
- assay_name: Kinase-Glo Plus luminescent kinase assay
- run_conditions: read-out: IC50 p110δ; 2 μM ATP, 37°C, 2 h
test_readout: pIC50
Please note pIC50 is a logarithmic value: minus log10 of concentration in mol/L. Answer with that number alone.

IN: Item Cc1cc(C(C)Nc2ccccc2)c2nc(N3CCOCC3)cc(=O)n2c1 (stereo not shown) : provide pIC50
OUT: 6.43

====

- Tested on: C4-2B/MDV-R cells
- assay_name: WST-8 cell growth inhibition
- Type: cell-based
- run_conditions: 72 h, read-out: Cell Growth Inhibition EC50 (95% CI)
test_readout: pEC50
Quick note: pEC50 values are minus log10 of concentrations in mol/L.

IN: Specify reported pEC50 for the molecule shown: `Cc1c(Cn2c(C)nc3c(C(=O)O)cc(N4CCOCC4)cc32)cccc1C(F)(F)F`
OUT: 4.37

====

- System: C4-2B cells
- assay_name: WST-8 cell growth inhibition
- Assay type: cell-based
- run_conditions: read-out: Cell Growth Inhibition EC50 (95% CI); C4-2B, 3 days
test_readout: pEC50
Remember, pEC50 is on a log scale: it is -log10 of the molar concentration.

IN: Dear colleague, please send me the reported pEC50 for Cc1cc(C(C)Nc2ccccc2)c2nc(N3CCOCC3)cc(=O)n2c1 (stereo not shown) [TGX221] when you can.
OUT: 4.65

====

- assay_system: human p110α/p85α (Homo sapiens, UniProt P42336)
- Sequence (P42336 whole entry): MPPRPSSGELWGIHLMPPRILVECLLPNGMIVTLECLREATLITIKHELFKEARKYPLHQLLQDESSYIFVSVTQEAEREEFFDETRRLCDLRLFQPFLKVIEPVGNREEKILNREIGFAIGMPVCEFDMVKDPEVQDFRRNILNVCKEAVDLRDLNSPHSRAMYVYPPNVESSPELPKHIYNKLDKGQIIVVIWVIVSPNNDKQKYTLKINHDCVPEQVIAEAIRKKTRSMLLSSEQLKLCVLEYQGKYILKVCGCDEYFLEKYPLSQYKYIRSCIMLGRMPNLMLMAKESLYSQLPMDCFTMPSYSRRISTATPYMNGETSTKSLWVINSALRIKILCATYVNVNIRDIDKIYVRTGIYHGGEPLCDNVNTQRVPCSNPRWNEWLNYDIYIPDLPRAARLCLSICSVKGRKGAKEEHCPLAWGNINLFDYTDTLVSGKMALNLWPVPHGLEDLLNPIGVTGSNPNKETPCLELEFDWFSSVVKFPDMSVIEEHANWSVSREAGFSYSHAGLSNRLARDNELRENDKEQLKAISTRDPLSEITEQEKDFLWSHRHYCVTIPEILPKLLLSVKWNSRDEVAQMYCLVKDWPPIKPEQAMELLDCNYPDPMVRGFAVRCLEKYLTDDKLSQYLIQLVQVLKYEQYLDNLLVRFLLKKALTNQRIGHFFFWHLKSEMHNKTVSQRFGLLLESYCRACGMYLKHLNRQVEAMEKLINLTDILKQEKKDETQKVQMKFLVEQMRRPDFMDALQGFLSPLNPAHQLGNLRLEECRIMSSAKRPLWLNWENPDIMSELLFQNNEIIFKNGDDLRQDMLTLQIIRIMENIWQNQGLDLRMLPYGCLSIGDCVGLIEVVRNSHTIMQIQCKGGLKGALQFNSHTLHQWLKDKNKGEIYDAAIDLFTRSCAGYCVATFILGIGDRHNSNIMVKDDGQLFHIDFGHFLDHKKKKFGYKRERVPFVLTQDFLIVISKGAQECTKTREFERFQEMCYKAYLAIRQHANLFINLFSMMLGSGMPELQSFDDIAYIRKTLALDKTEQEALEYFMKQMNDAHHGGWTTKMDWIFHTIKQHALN
- Sequence (P27986 whole entry partner): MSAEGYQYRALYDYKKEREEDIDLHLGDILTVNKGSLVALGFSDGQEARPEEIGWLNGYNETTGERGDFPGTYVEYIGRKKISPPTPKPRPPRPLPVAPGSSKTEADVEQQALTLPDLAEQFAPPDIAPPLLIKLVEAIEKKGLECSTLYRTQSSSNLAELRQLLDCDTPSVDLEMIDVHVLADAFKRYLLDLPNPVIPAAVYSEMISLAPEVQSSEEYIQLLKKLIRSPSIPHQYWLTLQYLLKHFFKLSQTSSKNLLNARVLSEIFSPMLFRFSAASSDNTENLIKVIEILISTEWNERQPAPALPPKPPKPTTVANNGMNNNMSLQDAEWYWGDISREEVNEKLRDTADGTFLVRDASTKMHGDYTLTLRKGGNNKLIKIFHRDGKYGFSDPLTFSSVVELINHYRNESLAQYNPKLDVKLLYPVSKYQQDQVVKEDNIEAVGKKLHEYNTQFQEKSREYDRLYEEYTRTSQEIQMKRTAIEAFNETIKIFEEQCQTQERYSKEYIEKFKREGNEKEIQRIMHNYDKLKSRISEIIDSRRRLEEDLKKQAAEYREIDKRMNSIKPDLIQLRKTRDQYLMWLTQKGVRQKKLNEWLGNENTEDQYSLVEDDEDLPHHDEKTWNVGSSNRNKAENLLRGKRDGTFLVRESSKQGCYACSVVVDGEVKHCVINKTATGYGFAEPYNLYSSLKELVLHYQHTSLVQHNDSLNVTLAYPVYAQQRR
- assay_name: Kinase-Glo Plus luminescent kinase assay
- run_conditions: read-out: IC50 p110α; 2 μM ATP, 37°C, 2 h
test_readout: pIC50
Lab note: report pIC50 as minus log10 of the concentration in molar units, number only.

IN: Return the recorded pIC50 value; entry: Cc1cc(C(C)Nc2ccccc2)c2nc(N3CCOCC3)cc(=O)n2c1 (stereo not shown)
OUT: 5.68

====

- Test system: 22RV1 cells
- assay_name: WST-8 cell growth inhibition
- Format: cell-based
- run_conditions: read-out: Cell Growth Inhibition EC50 (95% CI); 22RV1, 3 days
test_readout: EC50
Give the number first and the unit second.

IN: Determine from records and report EC50 for Cc1cc(C(C)Nc2ccccc2)c2nc(N3CCOCC3)cc(=O)n2c1 (stereo not shown)
OUT: 17.6 µM
